Study System: SIRT1 (Homo sapiens, UniProt Q96EB6)
Construct: purchased Enzo Life Sciences AK555
Sequence (Q96EB6 whole entry): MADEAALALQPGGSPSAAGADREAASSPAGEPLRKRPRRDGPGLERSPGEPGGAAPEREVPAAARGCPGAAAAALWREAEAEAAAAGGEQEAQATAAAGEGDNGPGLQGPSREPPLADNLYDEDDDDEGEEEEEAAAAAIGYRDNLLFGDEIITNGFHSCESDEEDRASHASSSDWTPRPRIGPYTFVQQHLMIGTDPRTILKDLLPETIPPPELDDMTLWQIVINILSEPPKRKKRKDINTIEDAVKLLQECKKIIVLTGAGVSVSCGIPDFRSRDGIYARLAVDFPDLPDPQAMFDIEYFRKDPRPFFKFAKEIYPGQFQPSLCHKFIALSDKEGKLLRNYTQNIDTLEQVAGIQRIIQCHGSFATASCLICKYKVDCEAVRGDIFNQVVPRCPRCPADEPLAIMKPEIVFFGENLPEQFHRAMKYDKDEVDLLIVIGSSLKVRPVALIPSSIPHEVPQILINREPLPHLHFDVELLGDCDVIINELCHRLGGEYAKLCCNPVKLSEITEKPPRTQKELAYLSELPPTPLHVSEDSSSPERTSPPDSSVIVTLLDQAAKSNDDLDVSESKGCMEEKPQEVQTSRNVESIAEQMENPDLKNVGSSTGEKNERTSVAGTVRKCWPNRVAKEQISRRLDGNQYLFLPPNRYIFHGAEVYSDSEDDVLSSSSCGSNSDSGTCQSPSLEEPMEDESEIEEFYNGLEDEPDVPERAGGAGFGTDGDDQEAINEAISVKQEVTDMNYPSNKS
Assay Method Text: Fluor de Lys fluorescence-based SIRT1 inhibition assay
Type: biochemical
Run Parameters: 60 μM concentration of inhibitor; ± SE, n = 2
Measurement Type: inhibition at 60 µM (%)

COc1c(F)cc(C(=O)NC(=S)Nc2ccc(NC(=O)CCCCN(C)C)cc2)cc1F.Cl [Tenovin-39]    79.5
CCOc1c(Cl)cc(C(=O)NC(=S)Nc2ccc(NC(=O)CCCCN(C)C)cc2)cc1Cl.Cl [Tenovin-41]    79.4
CCCOc1c(Cl)cc(C(=O)NC(=S)Nc2ccc(NC(=O)CCCCN(C)C)cc2)cc1Cl.Cl [Tenovin-42]    81
